# credit: patent US8802664B2

compounds and their reported Ki or IC50 activity class
target: human H4 receptor (Homo sapiens); construct: expressed in transfected cells; test: [3H]Histamine binding on membranes of CHO cells stably expressing human H4 receptor

- compound: "CCSc1ccc(F)c(C(OC2CCN(C)CC2)c2nc3ccccc3[nH]2)c1F (centres unmarked)"
  target: "human H4 receptor (Homo sapiens)"
  result: "< 0.3 µM"
- compound: "CN1CCC(OC(c2nc3ccccc3[nH]2)c2ccc(C(F)(F)F)cc2O)CC1 (centres unmarked)"
  target: "human H4 receptor (Homo sapiens)"
  result: "< 0.03 µM"
- compound: "CN1CCC(OC(c2cccc(OCCC(F)(F)F)c2)c2nc3ccccc3s2)CC1 (centres unmarked)"
  target: "human H4 receptor (Homo sapiens)"
  result: "< 0.3 µM"
- compound: "CN1CCC(NC(c2cccc(Br)c2)c2nc3ccccc3[nH]2)CC1 (centres unmarked)"
  target: "human H4 receptor (Homo sapiens)"
  result: "< 1 µM"

Field Ki or IC50 activity class (entry CN1CCC(OC(c2cccc(C#CCN)c2)c2nc3ccccc3s2)CC1 (centres unmarked) ) reads < 0.3 µM

====

molecular target: human H4 receptor (Homo sapiens, UniProt Q9H3N8); construct: expressed in transfected cells; assay: [3H]Histamine binding on membranes of CHO cells stably expressing human H4 receptor
Sequence (Q9H3N8 whole entry): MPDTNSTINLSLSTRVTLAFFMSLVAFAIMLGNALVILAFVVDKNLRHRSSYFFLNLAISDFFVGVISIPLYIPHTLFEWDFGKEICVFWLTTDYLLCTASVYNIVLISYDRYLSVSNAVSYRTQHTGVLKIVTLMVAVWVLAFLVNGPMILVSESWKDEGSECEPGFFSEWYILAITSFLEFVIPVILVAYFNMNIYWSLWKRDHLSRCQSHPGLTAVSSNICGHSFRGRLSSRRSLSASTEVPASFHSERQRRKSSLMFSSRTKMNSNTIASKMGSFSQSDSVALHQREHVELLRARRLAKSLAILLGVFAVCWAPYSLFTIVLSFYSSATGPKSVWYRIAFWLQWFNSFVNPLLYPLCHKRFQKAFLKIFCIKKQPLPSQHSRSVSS
measured.attribute: Ki or IC50 activity class

Record CN1CCC(OC(c2cccc(-c3cccnc3)c2)c2nc3ccccc3[nH]2)CC1 (stereo not shown) has human H4 receptor (Homo sapiens, UniProt Q9H3N8) Ki or IC50 activity class equal to < 300 nM

Record CN1CCC(OC(c2cccc(CCCNC(=O)OC(C)(C)C)c2)c2nc3ccccc3[nH]2)CC1 (stereo not shown) has human H4 receptor (Homo sapiens, UniProt Q9H3N8) Ki or IC50 activity class equal to < 300 nM

Record CN1CCC(OC(c2cccc(-c3cccnc3)c2)c2nc3ccccc3s2)CC1 (stereo not shown) has human H4 receptor (Homo sapiens, UniProt Q9H3N8) Ki or IC50 activity class equal to < 300 nM

Record Cc1ccccc1COc1cccc(C(NC2CCN(C)CC2)c2nc3ccccc3[nH]2)c1 (stereo not shown) has human H4 receptor (Homo sapiens, UniProt Q9H3N8) Ki or IC50 activity class equal to < 30 nM

Record CN1CCC(OC(c2cccc(N3CCC(O)CC3)c2)c2nc3ccccc3s2)CC1 (stereo not shown) has human H4 receptor (Homo sapiens, UniProt Q9H3N8) Ki or IC50 activity class equal to < 1000 nM

====

compounds and their reported Ki or IC50 activity class
target: human H4 receptor (Homo sapiens, UniProt Q9H3N8); construct: expressed in transfected cells; assay: [3H]Histamine binding on membranes of CHO cells stably expressing human H4 receptor

- compound: "CN1CC=C(SC(c2cccc(Br)c2)c2nc3ccccc3[nH]2)CC1 (centres unmarked) [Example 530]"
  Ki or IC50 activity class: "< 1000 nM"
- compound: "CN1CCC(OC(c2nc3ccccc3[nH]2)c2ccccc2OC(F)(F)F)CC1 (centres unmarked) [Example 251]"
  Ki or IC50 activity class: "< 1000 nM"
- compound: "CN1CCC(OC(c2cccc(CCc3c[nH]cn3)c2)c2nc3ccccc3[nH]2)CC1 (centres unmarked) [Example 412]"
  Ki or IC50 activity class: "< 1000 nM"
- compound: "CN1CCC(OC(c2cccc(C=CS(=O)(=O)c3ccccc3)c2)c2nc3ccccc3s2)CC1 (centres unmarked) [Example 209]"
  Ki or IC50 activity class: "< 300 nM"

Could you now consider this next compound?
Field Ki or IC50 activity class (entry CSCc1cccc(C(OC2CCN(C)CC2)c2nc3ccccc3[nH]2)c1 (centres unmarked) [Example 528] ) reads < 300 nM

====

molecular target: human H4 receptor (Homo sapiens, UniProt Q9H3N8); construct: expressed in transfected cells; experiment: [3H]Histamine binding on membranes of CHO cells stably expressing human H4 receptor
measured.attribute: Ki or IC50 activity class

Field Ki or IC50 activity class (entry Cc1cc(F)cc(O)c1C(OC1CCN(C)CC1)c1nc2ccccc2[nH]1 (centres unmarked) [Example 600] ) reads < 30 nM

Field Ki or IC50 activity class (entry CN1CCC(OC(c2cccc(C(=O)N(C)c3ccccc3)c2)c2nc3ccccc3s2)CC1 (centres unmarked) [Example 223] ) reads < 300 nM

Field Ki or IC50 activity class (entry CN1CCC(NC(c2cccc(OCCF)c2)c2nc3ccccc3[nH]2)CC1 (centres unmarked) [Example 180] ) reads < 30 nM

Field Ki or IC50 activity class (entry CN1CCC(NC(c2cccc(-c3ccccc3)c2)c2nc3ccccc3[nH]2)CC1 (centres unmarked) [Example 94] ) reads < 30 nM

Field Ki or IC50 activity class (entry CN1CCC(COC(c2cccc(C#CCCCN)c2)c2nc3cc(F)ccc3[nH]2)C1 (centres unmarked) [Example 462] ) reads < 300 nM

Field Ki or IC50 activity class (entry CN1CCC(NC(c2cccc(Br)c2)c2nc3ccccc3s2)CC1 (centres unmarked) [Example 82] ) reads < 300 nM

Field Ki or IC50 activity class (entry CN1CCC(NC(c2cccc(OCc3ccccc3F)c2)c2nc3ccccc3[nH]2)CC1 (centres unmarked) [Example 113] ) reads < 30 nM

Field Ki or IC50 activity class (entry CN1CCC(OC(c2cccc(SCCCN)c2)c2nc3ccccc3[nH]2)CC1 (centres unmarked) [Example 368] ) reads < 30 nM
